molecular target: UniProtKB O14815; experiment: Inhibition of human recombinant mini-CAPN9 pre-incubated for 10 mins before calpain FRET peptide 5-FAM /QXL520 substrate addition by FLIPR assay
Sequence (O14815 whole entry): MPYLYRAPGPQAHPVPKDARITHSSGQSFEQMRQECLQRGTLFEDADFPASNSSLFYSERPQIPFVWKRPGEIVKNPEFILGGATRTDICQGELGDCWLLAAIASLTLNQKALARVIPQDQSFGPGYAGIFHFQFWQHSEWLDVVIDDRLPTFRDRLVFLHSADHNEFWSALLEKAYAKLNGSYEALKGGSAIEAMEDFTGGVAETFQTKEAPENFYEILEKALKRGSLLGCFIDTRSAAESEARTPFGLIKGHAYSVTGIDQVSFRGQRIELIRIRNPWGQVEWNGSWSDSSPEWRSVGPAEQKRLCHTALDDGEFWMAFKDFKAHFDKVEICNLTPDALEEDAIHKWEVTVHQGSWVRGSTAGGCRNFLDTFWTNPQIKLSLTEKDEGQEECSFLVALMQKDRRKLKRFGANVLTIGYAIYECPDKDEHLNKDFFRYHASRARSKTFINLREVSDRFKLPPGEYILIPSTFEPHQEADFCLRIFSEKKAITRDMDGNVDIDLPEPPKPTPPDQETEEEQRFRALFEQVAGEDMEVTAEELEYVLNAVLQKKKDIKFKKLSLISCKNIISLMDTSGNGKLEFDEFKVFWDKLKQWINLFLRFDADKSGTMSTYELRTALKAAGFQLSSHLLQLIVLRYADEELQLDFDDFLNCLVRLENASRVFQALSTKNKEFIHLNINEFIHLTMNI
Where a SMILES comes first, the peptide text is derived from it. The star is where a group is joined. Cbz = O=C(OCc1ccccc1)*; CH2F = FC*
property: IC50 (µM)

C[C@H](NC(=O)[C@H](Cc1ccccc1)NC(=O)OCc1ccccc1)C(=O)CF	100
COC(=O)C[C@H](NC(=O)[C@H](C)NC(=O)[C@@H](NC(=O)OCc1ccccc1)C(C)C)C(=O)CF (Cbz-Val-Ala-Asp(OMe)-CH2F)	100
